Target or test system: COX-2 (Homo sapiens)
Construct: purchased Cayman Chemicals
Sequence (P35354 18-604): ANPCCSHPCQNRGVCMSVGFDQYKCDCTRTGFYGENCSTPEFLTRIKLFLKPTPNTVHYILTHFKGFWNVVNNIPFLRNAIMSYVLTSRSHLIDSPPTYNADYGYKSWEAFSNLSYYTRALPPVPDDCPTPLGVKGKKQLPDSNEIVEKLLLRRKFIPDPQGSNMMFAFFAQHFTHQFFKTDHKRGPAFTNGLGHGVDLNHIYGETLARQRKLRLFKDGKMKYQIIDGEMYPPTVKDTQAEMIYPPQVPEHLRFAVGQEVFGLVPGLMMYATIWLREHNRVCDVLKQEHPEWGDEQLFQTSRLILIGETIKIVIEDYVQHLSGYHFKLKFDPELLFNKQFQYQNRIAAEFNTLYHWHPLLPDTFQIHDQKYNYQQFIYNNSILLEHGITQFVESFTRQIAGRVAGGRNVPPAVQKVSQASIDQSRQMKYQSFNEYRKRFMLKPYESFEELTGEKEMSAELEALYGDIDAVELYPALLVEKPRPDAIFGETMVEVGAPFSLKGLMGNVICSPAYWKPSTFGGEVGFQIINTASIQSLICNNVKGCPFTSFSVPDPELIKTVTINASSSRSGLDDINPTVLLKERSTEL
Assay details: COX Inhibitor Screening Assay (EIA) on isolated COX-2 isoenzyme
Format: biochemical
Study conditions: 1 µM, incubation 10 min
Recorded metric: Inhibition of COX-2 (%)

Take a look at these entries with their results.
Compound	Target or test system	Inhibition of COX-2 / %
CC(=O)Oc1c(F)cccc1C(=O)OC[CH]1[CH2][Pt-]1([Cl])([Cl])[Cl].[K+] (stereo not drawn)	COX-2 (Homo sapiens)	20.7
CC(=O)Oc1c(Cl)cccc1C(=O)OC[CH]1[CH2][Pt-]1([Cl])([Cl])[Cl].[K+] (stereo not drawn)	COX-2 (Homo sapiens)	58.8
CC(=O)Oc1ccc(C)cc1C(=O)OCC[CH]1[CH2][Pt-]1([Cl])([Cl])[Cl].[K+] (stereo not drawn)	COX-2 (Homo sapiens)	45.0

P: CC(=O)Oc1cc(Cl)ccc1C(=O)OCC[CH]1[CH2][Pt-]1([Cl])([Cl])[Cl].[K+] (stereo not drawn)
Q: C=C.O.[Cl][Pt-]([Cl])[Cl].[K+] [Zeise’s salt]
R: CC(=O)Oc1cc(F)ccc1C(=O)OC[CH]1[CH2][Pt-]1([Cl])([Cl])[Cl].[K+] (stereo not drawn)
Order the 3 compounds from highest to lowest Inhibition of COX-2. Response format: the labels, sorted as the prompt asks.
P, R, Q
(P: 40.0%, R: 17.5%, Q: 1.5%)

###

Assay details: Complex stability by capillary electrophoresis (decrease of initial complex over time)
Assay type: physicochemical
Study conditions: MeOH/water (50/50, v/v), 1 mM, 37 °C, CE
Recorded metric: Half-life (τ½) (h)

Worked cases, answers included:
Compound	Half-life (τ½) / h
CC(=O)Oc1cc(Cl)ccc1C(=O)OCC[CH]1[CH2][Pt-]1([Cl])([Cl])[Cl].[K+] (centres unmarked)	39.5
CC(=O)Oc1c(Cl)cccc1C(=O)OC[CH]1[CH2][Pt-]1([Cl])([Cl])[Cl].[K+] (centres unmarked)	0.523
CC(=O)Oc1cc(F)ccc1C(=O)OCC[CH]1[CH2][Pt-]1([Cl])([Cl])[Cl].[K+] (centres unmarked)	49.9

P: CC(=O)Oc1c(Cl)cccc1C(=O)OCC[CH]1[CH2][Pt-]1([Cl])([Cl])[Cl].[K+] (centres unmarked)
Q: CC(=O)Oc1ccc(F)cc1C(=O)OC[CH]1[CH2][Pt-]1([Cl])([Cl])[Cl].[K+] (centres unmarked)
R: CC(=O)Oc1cccc(Cl)c1C(=O)OC[CH]1[CH2][Pt-]1([Cl])([Cl])[Cl].[K+] (centres unmarked)
S: CC(=O)Oc1ccccc1C(=O)OCC[CH]1[CH2][Pt-]1([Cl])([Cl])[Cl].[K+] (centres unmarked)
Arrange these 4 compounds in increasing order of Half-life (τ½). Note for the reader: the ranking is given by listing the labels in the order requested.
Q, R, P, S
(Q: 0.46 h, R: 0.658 h, P: 47.0 h, S: 69.6 h)

P: CC(=O)Oc1ccc(Cl)cc1C(=O)OCC[CH]1[CH2][Pt-]1([Cl])([Cl])[Cl].[K+] (centres unmarked)
Q: CC(=O)Oc1cc(Cl)ccc1C(=O)OC[CH]1[CH2][Pt-]1([Cl])([Cl])[Cl].[K+] (centres unmarked)
I need your help: which of the pair P , Q has higher Half-life (τ½)? // output: label of the selected item
P

I: CC(=O)Oc1cccc(Cl)c1C(=O)OCC[CH]1[CH2][Pt-]1([Cl])([Cl])[Cl].[K+] (centres unmarked)
II: CC(=O)Oc1ccc(Cl)cc1C(=O)OC[CH]1[CH2][Pt-]1([Cl])([Cl])[Cl].[K+] (centres unmarked)
III: CC(=O)Oc1cccc(F)c1C(=O)OCC[CH]1[CH2][Pt-]1([Cl])([Cl])[Cl].[K+] (centres unmarked)
Order the records so the highest Half-life (τ½) appears first and the lowest last. Answer by naming the labels in the order asked.
I, III, II

###

System: MCF-7 cells
Assay details: Crystal violet assay, antiproliferative effects in MCF-7 cells
Type: cell-based
Study conditions: MCF-7 (COX-negative), 72 h
pIC50: −log10 of the molar value.
Recorded metric: pIC50

Compound	Target or test system	pIC50
CC(=O)Oc1cc(F)ccc1C(=O)OCC[CH]1[CH2][Pt-]1([Cl])([Cl])[Cl].[K+] (stereo not drawn)	MCF-7 cells	3.98
CC(=O)Oc1c(C)cccc1C(=O)OC[CH]1[CH2][Pt-]1([Cl])([Cl])[Cl].[K+] (stereo not drawn)	MCF-7 cells	4.15
CC(=O)Oc1cc(Cl)ccc1C(=O)OCC[CH]1[CH2][Pt-]1([Cl])([Cl])[Cl].[K+] (stereo not drawn)	MCF-7 cells	4.50

1: CC(=O)Oc1c(F)cccc1C(=O)OC[CH]1[CH2][Pt-]1([Cl])([Cl])[Cl].[K+] (stereo not drawn)
2: CC(=O)Oc1cc(F)ccc1C(=O)OC[CH]1[CH2][Pt-]1([Cl])([Cl])[Cl].[K+] (stereo not drawn)
Hi there, can you help? I need to know whether 1 or 2 has lower measured pIC50. # answer = label of selected item
2
(2: 3.82, 1: 4.07)

###

Assay details: Complex stability by capillary electrophoresis (decrease of initial complex over time)
Format: physicochemical
Study conditions: MeOH/water (50/50, v/v), 1 mM, 37 °C, CE
Recorded metric: Half-life (τ½) (min)

The following compounds have reported results that may help.
Compound	Val
CC(=O)Oc1ccccc1C(=O)OC[CH]1[CH2][Pt-]1([Cl])([Cl])[Cl].[K+] (centres unmarked) [ASA-Prop-PtCl3]	35.7
CC(=O)Oc1ccc(C)cc1C(=O)OC[CH]1[CH2][Pt-]1([Cl])([Cl])[Cl].[K+] (centres unmarked) [5-CH3-ASA-Prop-PtCl3]	36.7
CC(=O)Oc1cc(F)ccc1C(=O)OC[CH]1[CH2][Pt-]1([Cl])([Cl])[Cl].[K+] (centres unmarked) [4-F-ASA-Prop-PtCl3]	32.1
CC(=O)Oc1cc(C)ccc1C(=O)OCC[CH]1[CH2][Pt-]1([Cl])([Cl])[Cl].[K+] (centres unmarked) [4-CH3-ASA-But-PtCl3]	3940
CC(=O)Oc1cccc(F)c1C(=O)OC[CH]1[CH2][Pt-]1([Cl])([Cl])[Cl].[K+] (centres unmarked) [6-F-ASA-Prop-PtCl3]	29.1
CC(=O)Oc1c(C)cccc1C(=O)OC[CH]1[CH2][Pt-]1([Cl])([Cl])[Cl].[K+] (centres unmarked) [3-CH3-ASA-Prop-PtCl3]	35.1
CC(=O)Oc1cccc(C)c1C(=O)OCC[CH]1[CH2][Pt-]1([Cl])([Cl])[Cl].[K+] (centres unmarked) [6-CH3-ASA-But-PtCl3]	2100
CC(=O)Oc1ccc(F)cc1C(=O)OCC[CH]1[CH2][Pt-]1([Cl])([Cl])[Cl].[K+] (centres unmarked) [5-F-ASA-But-PtCl3]	2890
CC(=O)Oc1c(C)cccc1C(=O)OCC[CH]1[CH2][Pt-]1([Cl])([Cl])[Cl].[K+] (centres unmarked) [3-CH3-ASA-But-PtCl3]	2750
CC(=O)Oc1cccc(C)c1C(=O)OC[CH]1[CH2][Pt-]1([Cl])([Cl])[Cl].[K+] (centres unmarked) [6-CH3-ASA-Prop-PtCl3]	44.8

a: CC(=O)Oc1c(F)cccc1C(=O)OCC[CH]1[CH2][Pt-]1([Cl])([Cl])[Cl].[K+] (centres unmarked) [3-F-ASA-But-PtCl3]
b: CC(=O)Oc1c(F)cccc1C(=O)OC[CH]1[CH2][Pt-]1([Cl])([Cl])[Cl].[K+] (centres unmarked) [3-F-ASA-Prop-PtCl3]
I'd appreciate it if you could identify which of a and b has the greater Half-life (τ½). Write down the label attached to your selection.
a
(a: 3110 min, b: 30.5 min)

###

Tested on: MCF-7 cells
Assay details: Crystal violet assay, antiproliferative effects in MCF-7 cells
Format: cell-based
Study conditions: MCF-7 (COX-negative), 72 h
Procedure: In order to investigate the cytotoxic effects in MCF-7 and HT-29 cells, an already published crystal violet assay was used. […] The absorbance was measured at 590 nm. Mean values ± SD of ≥2 independent experiments were calculated, and the activity of the complexes was expressed as the cell mass of the vehicle-treated control, which was set to 100%. […]
Recorded metric: IC50 (µM)

Molecule	Target or test system	IC50 [µM]
CC(=O)Oc1c(C)cccc1C(=O)OCC[CH]1[CH2][Pt-]1([Cl])([Cl])[Cl].[K+] (stereo not shown)	MCF-7 cells	45.6
CC(=O)Oc1cccc(F)c1C(=O)OCC[CH]1[CH2][Pt-]1([Cl])([Cl])[Cl].[K+] (stereo not shown)	MCF-7 cells	92.6
CC(=O)Oc1ccc(C)cc1C(=O)OCC[CH]1[CH2][Pt-]1([Cl])([Cl])[Cl].[K+] (stereo not shown)	MCF-7 cells	32.5
CC(=O)Oc1cc(Cl)ccc1C(=O)OC[CH]1[CH2][Pt-]1([Cl])([Cl])[Cl].[K+] (stereo not shown)	MCF-7 cells	70.7
